Tested on: MCF-7 (breast carcinoma) cell line
Test: MTT cytotoxicity assay, MCF-7
Assay type: cell-based
Settings: Homo sapiens, MCF7, 48 h, mean of three independent experiments, read-out: IC50 (μM) Mean ± SD, MCF-7
Measurement type: IC50 (µM)

Smiles code	Unit symbol	Qualifying sign	Test value
O=C(OCCCCCCCCOC(=O)c1cc2c3ccccc3n(Cc3ccccc3F)c2cn1)c1cc2c3ccccc3n(Cc3ccccc3F)c2cn1	µM	=	76.3
COC(=O)c1cc2c3ccccc3n(Cc3ccc(C)cc3)c2cn1	µM	>	80
COC(=O)c1cc2c3ccccc3n(Cc3ccccc3)c2cn1	µM	>	80
Cc1ccccc1Cn1c2ccccc2c2cc(C(=O)OCCCOC(=O)c3cc4c5ccccc5n(Cc5ccccc5C)c4cn3)ncc21	µM	=	53.1

Origin of the recorded values: paper PMC6214108
